test: yeast display, Sf9 membrane polyspecificity reagent, FACS + sequencing; frameworks hold sequencing errors
metric-name: polyreactivity (PSR sort gate)

Known results for sequences:
sequence-text	result
QDQLVDSGGGLVQAGGSLRLSCAASGRIFRGNAMGWYRQAPGKERELVAAISNSGGRTYYADSVKGRFTISRDNAKNTVYLQMNSLKPDDTAVSYCAAKAPVIFWDTRIVPGYSGYYYWGQGTQVTVSS	high polyreactivity
QVPLVESGGGLVQAGGILRLSSAASGFIFTYYAMGWYRQAPGKERELVAAISASGGSTYYADSVKGRFTISRDYAKNTVYIQLYSLEPEDSSVYYCNKLYQQRAWETFSWGGYWGQGTQVTVSS	high polyreactivity
QVQLVESGGGLVQAGGSLRLSCAASGIIFYYYVLGWYRQAPGKERELVAAISARGGSTTYADSVKGRFTISRDNAKNTVYLQMISLKPEDTAVYYCAADVSYWRHGYQLSYDYWGQVTQVTVSS	high polyreactivity
QVQVVESGGGLVQAGGSLRLICAASGSTSWSYAMGWYRQAPGKERELVAAITRTGSTNYADSVKGRFTISRDNAKNTVYLQMNSLKPEDTAVYYCVYATLRYDYWGQGTQVTVSS	low polyreactivity

Would you kindly look at the next entry?
Param item = QVQLVESGGGLVQAGGSLRLSCAASGSIFSSYAMGWYRQAPGKERELVAAISTAGSTNYADSVKGRFTISRDNAKNTVYLQMNSLKPEDTAVYYCAADSGDQQSYGLDLNHDFDYWGQGTQVTVSS ; retrieve measured polyreactivity (PSR sort gate).
low polyreactivity

The measured values listed here are drawn from the nanobody polyreactivity screen of Harvey et al. (2022).
